Biological target: Kelch-like ECH-associated protein 1 (Homo sapiens)
Test: Keap1 Kelch domain binders by melting shift, dose response, orthogonal assay for Keap1-Nrf2 interaction inhibitor project, biophysical, thermal shift, RT-PCR instrument, dry powder (AID 651829)
Settings: Recombinant Keap1 Kelch domain, Sypro Orange, at 38 µM, top dose 38 µM, active compounds read high
The source made the active and inactive calls.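 The calls were made as follows: active = max delta Tm melting temperature shift above 1 degree C at some tested dose; inactive = the rest.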
Collected max delta Tm values appear next to each entry.
Measurement name: max delta Tm

>  <Compound>
NC(=O)c1ccccc1C(=O)NC[C@@H]1c2ccccc2CCN1C(=O)[C@@H]1CCCC[C@@H]1C(=O)O

>  <Measurement name>
max delta Tm

>  <Value>
0.771 °C (inactive)

$$$$
>  <Compound>
O=C(NCCO)c1ccccc1C(=O)NC[C@@H]1c2ccccc2CCN1C(=O)C1CCCCC1C(=O)O (stereo partly specified)

>  <Measurement name>
max delta Tm

>  <Value>
1.77 degrees C

$$$$
>  <Compound>
O=C(Cc1ccccc1)NC[C@@H]1c2ccccc2CCN1C(=O)[C@@H]1CCCC[C@@H]1C(=O)O

>  <Measurement name>
max delta Tm

>  <Value>
1.66 degrees C

$$$$
>  <Compound>
O=C(O)[C@H]1C2C=CC(C2)[C@H]1C(=O)N1CCc2ccccc2C1CN1C(=O)c2ccccc2C1=O (stereo partly specified)

>  <Measurement name>
max delta Tm

>  <Value>
1.86 degrees C

$$$$
>  <Compound>
Cc1ccc(S(=O)(=O)NC(=O)[C@@H]2c3ccccc3CCN2C(=O)[C@@H]2CCCC[C@@H]2C(=O)O)cc1

>  <Measurement name>
max delta Tm

>  <Value>
2.68 degrees C

$$$$
>  <Compound>
O=C(O)CCC(=O)N1CCc2ccccc2C1CN1C(=O)c2ccccc2C1=O (stereo unspecified)

>  <Measurement name>
max delta Tm

>  <Value>
0.462 °C (inactive)

$$$$
